test: MTT cytotoxicity assay, non-cancer ARPE19 cells; details: human, ARPE19 non-cancer retinal pigment cells
Assign IC50 at 48 h to each entry below.
Quick note: give the figure in µM, leave out the unit.

// lookup IC50 at 48 h for `CCCCCc1cc(O)c(C/C=C(\C)CCC=C(C)C)c(O)c1`
21.2

// lookup IC50 at 48 h for `C=C(C)[C@@H]1CCC(C)=C[C@H]1c1c(O)cc(CCCCC)cc1O`
14.4

###

Assign IC50 at 48 h to each entry below.
experiment: MTT cytotoxicity assay, non-cancer PNT2 cells; details: human, PNT2 normal prostate epithelial cells
Be sure to follow the number with its unit.

// lookup IC50 at 48 h for `C=C(C)[C@@H]1CCC(C)=C[C@H]1c1c(O)cc(CCCCC)cc1O`
17.7 µM

// lookup IC50 at 48 h for `CCCCCc1cc(O)c(C/C=C(\C)CCC=C(C)C)c(O)c1`
22.9 µM
